Each item that follows carries a reported Kd.
Target: T1, human PD-L1, his tagged (hPD-L1-his) (human, UniProt Q9NZQ7 19-238, limits assumed)
T1 construct: also called huPD-L1-His; recombinant human PD-L1; not shown: his tag
T1 sequence (Q9NZQ7 19-238 limits assumed): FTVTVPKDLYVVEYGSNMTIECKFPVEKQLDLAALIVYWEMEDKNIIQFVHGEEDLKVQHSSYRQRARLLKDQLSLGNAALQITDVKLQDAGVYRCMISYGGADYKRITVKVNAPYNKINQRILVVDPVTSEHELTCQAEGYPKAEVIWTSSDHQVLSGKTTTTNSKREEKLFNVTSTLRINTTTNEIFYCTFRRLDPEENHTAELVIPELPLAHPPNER
Assay: BLI (ForteBio Octet), IgG on AHC sensor, hPD-L1-his analyte, 1:1 fit
Value expressed in nM; do not type the unit.

• 788-hIgG1 (chimeric PAL788) (antibody, V domains shown) VH: QVQLQQPGAELVKPGASVKLSCKASGYTFTSNWMNWVKQRPGRGLEWIGRIHPSDSETHYHQKFKSKATLTVDKSSSTAYIQLSSLTSEDSAVYYCAHSSGDYGRDYWGQGTTLTVSS VL: NIVLTQSPASLAVSLGQRATISCRASESVDSYGNSFMHWYQQKPGQPPKLLIYLASNLQSGVPARFSGSGSRTDFTLTIDPVEADDAATYYCQQNNEDPWTFGGGTKLEIK = 0.043
• 771-hIgG1 (chimeric PAL771) (antibody, V domains shown) VH: EVQLQESGAELVKPGASVKLSCTASGFNIKDTYMHWVKQRPEQGLEWIGRIDPANGNTKYDPKFPGKATITADTSSNTAYLQLSSLTSEDAAVYYCARPFNYRFYDVYYFDYWGQGTTLTVST VL: QIVLTQSPAIMSASPGEKVTMTCSASSSVSYMYWYQQKPGSSPRLLIYDTSNLASGVPLRFSGSGSGTSYSLTLSRMEAEDAATYYCQQWSTYPLTFGAGTKLELK = 1.43
• 785-hIgG1 (chimeric PAL785) (antibody, V domains shown) VH: EVQLQESGPELVKPGTSVKMSCKASGYTFTSYVMHWVKQRPGQGLEWIGYINPYNDGSKYNEKFKGKATLTSDTSSSTAYMELSSLTSEDSAVYYCAKQTLDFWGQGTSVTVST VL: DIVLTQSPASLAVSLGQRATISCRASESVEFYGTTLMQWYQQKPGQPPKLLIYAASNVESGVPARFSGSGSGTDFSLNIHPVEEGDIGMYFCQQSRKVPYTFGGGTKLEIK = 1.64
• 769-hIgG1 (chimeric PAL769) (antibody, V domains shown) VH: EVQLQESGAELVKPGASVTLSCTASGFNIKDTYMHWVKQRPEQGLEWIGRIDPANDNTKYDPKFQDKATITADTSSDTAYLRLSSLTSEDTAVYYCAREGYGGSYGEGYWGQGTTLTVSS VL: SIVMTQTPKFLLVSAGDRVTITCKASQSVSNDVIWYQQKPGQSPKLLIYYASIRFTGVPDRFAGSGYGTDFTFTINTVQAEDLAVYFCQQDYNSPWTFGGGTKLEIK = 0.64

IN: Look up Kd: 752-hIgG1 (chimeric PAL752) (antibody, V domains shown) VH: EVQLQESGAELARPGASVKLSCKASGHAFTSDSINWVKQRIGQGLEWIGEIYPRSGNPYYNEKFKGKATLTADKSSSTAYMELRSLTSEDSAVYFCATDYYGRYFDVWGTGTTVTVSS VL: DIQMTQSSFSFSVSLGDRVTIICKASEDIYNRLAWYQQKPGNTPRLLISGATSLETGVPSRFSGSGSGKDYTLSITSLQTEDVATYYCQQYWSTPWTFGGGTKLEIK
OUT: 1.18
